Reported values of OD450 for individual entries
Target: BSA (UniProt P02769)
Sequence (P02769 25-607 limits assumed): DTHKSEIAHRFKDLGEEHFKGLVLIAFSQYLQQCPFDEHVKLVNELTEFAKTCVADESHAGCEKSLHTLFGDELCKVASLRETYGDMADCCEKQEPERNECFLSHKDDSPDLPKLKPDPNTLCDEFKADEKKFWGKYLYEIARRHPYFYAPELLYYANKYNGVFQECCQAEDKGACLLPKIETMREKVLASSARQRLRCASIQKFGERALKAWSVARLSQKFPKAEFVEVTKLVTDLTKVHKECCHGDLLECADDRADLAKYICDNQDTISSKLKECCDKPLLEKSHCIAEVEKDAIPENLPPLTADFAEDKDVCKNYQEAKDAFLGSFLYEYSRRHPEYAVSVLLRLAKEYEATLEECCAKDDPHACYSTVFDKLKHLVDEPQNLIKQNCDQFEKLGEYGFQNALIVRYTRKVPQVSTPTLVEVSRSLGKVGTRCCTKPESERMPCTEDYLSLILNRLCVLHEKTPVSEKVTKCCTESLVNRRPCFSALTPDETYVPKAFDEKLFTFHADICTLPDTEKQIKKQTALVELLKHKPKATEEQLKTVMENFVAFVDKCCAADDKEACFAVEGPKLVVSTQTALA
Assay: scFv ELISA
Answer format: numeric, OD450 implied, no suffix.

binder="PcOxP_DB02_D09 (scFv, V domains shown, scFv in periplasmic extract) VH: EVQLLESGGGLVQPGGSLRLSCAASGFTFSTFYMEWVRQAPGKGLEWVAASRNKANDYTTEYADSVKGRFTISRDNSKNTLYLQMNSLRAEDTAVYYCARDYYGSSYWYFDVWGQGTLVTVSS VL: DIQMTQSPSSLSASVGDRVTITCTASESLYSSKHKVHYLAWYQQKPGKAPKLLIYGASNRYGGVPSRFSGSGSGTDFTLTISSLQPEDFATYYCAQFYEYPLTFGGGTKVEIK" assay_result=0.11

The binder listed as PcOxP_DB03_H07 (scFv, V domains shown, scFv in periplasmic extract) VH: EVQLLESGGGLVQPGGSLRLSCAASGFTFSDYYMEWVRQAPGKGLEWVAASRNKANDYTTEYADSVKGRFTISRDNSKNTLYLQMNSLRAEDTAVYYCARDYYGSSYWYFDVWGQGTLVTVSS VL: DIQMTQSPSSLSASVGDRVTITCTASESLYSSKHKVHYLAWYQQKPGKAPKLLIYGASNRDIGVPSRFSGSGSGTDFTLTISSLQPEDFATYYCGQFYSYPLTFGGGTKVEIK shows OD450 equal to 0.08
